- System name: NL20 human bronchial epithelial cells expressing human Z-AAT (Homo sapiens (Human), UniProt P01009, E366K)
- Sequence (P01009 25-418 E366K limits assumed): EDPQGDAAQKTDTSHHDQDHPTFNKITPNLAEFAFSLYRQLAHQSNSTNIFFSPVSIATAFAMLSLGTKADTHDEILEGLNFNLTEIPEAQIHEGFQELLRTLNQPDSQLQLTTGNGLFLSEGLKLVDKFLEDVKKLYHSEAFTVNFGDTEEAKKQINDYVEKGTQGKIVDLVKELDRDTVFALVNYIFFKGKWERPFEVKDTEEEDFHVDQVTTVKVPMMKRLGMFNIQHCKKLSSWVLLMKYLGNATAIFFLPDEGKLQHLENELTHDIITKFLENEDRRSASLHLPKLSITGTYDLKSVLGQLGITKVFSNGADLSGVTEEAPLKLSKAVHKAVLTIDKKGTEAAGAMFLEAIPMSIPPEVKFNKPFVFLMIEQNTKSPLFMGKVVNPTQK
- Assay notes: AAT Function Assay (MSD Assay NL20-SI Cell Line)
- Protocol conditions: functionally active AAT (AAT-hNE complex, MSD) in supernatant of NL20 cells expressing human Z-AAT; read-out: NL20 Functional EC50
pEC50: −log10 of the molar value.

| Compound | pEC50 |
| --- | --- |
| Cc1cc(-n2c(C(C)C)c(C#N)c3cc(O)c(F)cc32)ccc1F [Compound 193] | 5.70 to 6.30 |
| Cc1cc(-n2c(C3CCOCC3)c([C@H]3CC4(C[C@H](C(=O)O)C4)C3)c3cc(O)ccc32)ccc1F (stereo partly shown) [Compound 12] | > 6.30 |
| CC(C)c1c([C@H]2C[C@@H](C(=O)O)C2)c2cc(O)ccc2n1-c1ccc(F)c(Cl)c1 [Compound 78] | < 5.70 |
| N#Cc1c(C2CCC2)n(-c2ccccc2)c2ccc(O)cc12 [Compound 197] | 5.70 to 6.30 |
| Cc1cc(-n2c(C(C)C)c([C@@H]3COC[C@@H]3C(=O)O)c3cc(O)ccc32)ccc1F (racemic) [Compound 83] | < 5.70 |
| Cc1nccc(-n2c(C(C)C)c(-c3ccc(C(=O)O)cc3)c3cc(O)ccc32)n1 [Compound 174] | < 5.70 |
| Cc1cc(-n2c(C(C)C)c(CC(C)C(=O)O)c3cc(O)ccc32)ccc1F (stereo not shown) [Compound 26] | < 5.70 |
| CCCn1c(C(C)(C)C)c(C#N)c2cc(O)ccc21 [Compound 205] | < 5.70 |
| Cc1cc(-n2c(C3CCOCC3)c(-c3ccc(C(=O)O)cc3)c3cc(O)ccc32)ccc1F [Compound 166] | < 5.70 |
| Cc1cc(-n2c(C(C)C)c(CCC(C)(C)C(=O)O)c3cc(O)ccc32)ccc1F [Compound 62] | 5.70 to 6.30 |
| Cc1cc(-n2c(C(C)C)c(C3CC4(CC(C(=O)O)C4)C3)c3cc(O)ccc32)ccc1F (stereo not shown) [Compound 97] | > 6.30 |
| O=C(O)[C@H]1CC2(C1)C[C@H](c1c(C3CCOCC3)n(-c3ccc(F)c(Cl)c3)c3ccc(O)cc31)C2 (stereo partly shown) [Compound 33] | > 6.30 |
| Cc1cc(-n2c(C(C)C)c([C@H]3C[C@H]3C(=O)O)c3cc(O)ccc32)ccc1F [Compound 128] | < 5.70 |
| CO[C@]1(C(=O)O)C[C@H](c2c(C(C)C)n(-c3ccc(F)c(C)c3)c3ccc(O)cc32)C1 [Compound 66] | 5.70 to 6.30 |
| Cc1cc(-n2c(C(C)C)c([C@H]3C[C@@](C)(C(=O)O)C3)c3c(F)c(O)c(F)cc32)ccc1F [Compound 23] | 5.70 to 6.30 |
| Cc1cc(-n2c(C3CC3)c([C@H]3C[C@H](C(=O)O)C3)c3cc(O)ccc32)ccc1F [Compound 93] | < 5.70 |

* * *

- System name: purified Z-AAT protein from human plasma (Homo sapiens (Human), UniProt P01009, E366K)
- Sequence (P01009 25-418 E366K limits assumed): as above
- Assay notes: Biochemical Assay (Z-AAT Elastase Activity Assay)
- Protocol conditions: purified Z-AAT pre-incubated with compound 1 hour, then human neutrophil elastase and fluorescent substrate

| Compound | System name | IC50 |
| --- | --- | --- |
| CO[C@]1(C(=O)O)C[C@H](c2c(C(C)C)n(-c3ccc(F)c(C)c3)c3ccc(O)cc32)C1 [Compound 66] | purified Z-AAT protein from human plasma (Homo sapiens (Human), UniProt P01009, E366K) | > 30 µM |
| CC(C)c1c([C@H]2C[C@@](C)(C(=O)O)C2)c2cc(O)ccc2n1-c1ccc(F)c(Cl)c1 [Compound 76] | purified Z-AAT protein from human plasma (Homo sapiens (Human), UniProt P01009, E366K) | > 30 µM |
| Cc1cc(-n2c(C3CCOCC3)c([C@H]3C[C@](C)(C(=O)O)C3)c3cc(O)ccc32)ccc1F [Compound 99] | purified Z-AAT protein from human plasma (Homo sapiens (Human), UniProt P01009, E366K) | > 5 µM |
| Cc1cc(-n2c(C(C)C)c(CC(C)C(=O)O)c3cc(O)ccc32)ccc1F (single isomer, unassigned) [Compound 102] | purified Z-AAT protein from human plasma (Homo sapiens (Human), UniProt P01009, E366K) | > 30 µM |

* * *

- System name: purified Z-AAT protein from human plasma (Homo sapiens (Human), UniProt P01009, E366K)
- Assay notes: Biochemical Assay (Z-AAT Elastase Activity Assay)
- Protocol conditions: purified Z-AAT pre-incubated with compound 1 hour, then human neutrophil elastase and fluorescent substrate
Assay endpoint: IC50

| Molecule | Result |
| --- | --- |
| CC(C)c1c([C@H]2C[C@@H](C(=O)O)C2)c2cc(O)ccc2n1-c1ccc(F)c(Cl)c1 [Compound 78] | > 5 µM |
| O=C(O)[C@H]1C[C@H](Cc2c(C3CCOCC3)n(-c3ccc(F)cc3)c3ccc(O)cc23)C1 [Compound 36] | > 30 µM |
| O=C(O)[C@H]1C[C@@H](c2c(C3CCOCC3)n(-c3ccc(F)c(Cl)c3)c3ccc(O)cc32)C1 [Compound 115] | > 30 µM |
| Cc1cc(-n2c(C(C)C)c(C#N)c3cc(O)ccc32)ccc1F [Compound 187] | > 30 µM |
| Cc1cc(-n2c([C@H]3CCOC3)c([C@H]3C[C@@H](C(=O)O)C3)c3cc(O)ccc32)ccc1F [Compound 87] | > 30 µM |
| Cc1cc2c(cc1O)c(C#N)c(C)n2-c1ccc(F)c(C)c1 [Compound 210] | > 30 µM |
| Cc1cc(-n2c(C3CCOCC3)c([C@H]3C[C@@](CO)(C(=O)O)C3)c3cc(O)ccc32)ccc1F [Compound 109] | > 30 µM |
| O=C(O)[C@H]1CC2(C1)C[C@H](c1c(C3CCOCC3)n(-c3ccc(F)c(Cl)c3)c3ccc(O)cc31)C2 (stereo partly shown) [Compound 32] | > 5 µM |
| Cc1cc(-n2c(C3CCOCC3)c([C@H]3C[C@@](C)(C(=O)O)C3)c3cc(O)ccc32)ccc1F [Compound 100] | > 30 µM |
| Cc1cc(-n2c(C(C)C)c(-c3cncc(C(=O)O)c3)c3cc(O)ccc32)ccc1F [Compound 172] | 2 to 5 µM |
| N#Cc1c(C2CCC2)n(-c2ccc(F)cc2)c2ccc(O)cc12 [Compound 188] | > 30 µM |
| Cc1cc(-n2c(C(C)C)c([C@H]3C[C@](C)(C(=O)O)C3)c3c(F)c(O)c(F)cc32)ccc1F [Compound 22] | 2 to 5 µM |
| Cc1cc(-n2c(C(C)C)c(-c3cccc(C(=O)O)c3)c3cc(O)ccc32)ccc1F [Compound 168] | 2 to 5 µM |
| Cc1cc(-n2c(C#N)c(-c3ccc(C(=O)O)cc3)c3cc(O)ccc32)ccc1F [Compound 175] | > 30 µM |
| CC(C)(C)c1c(C#N)c2cc(O)ccc2n1-c1ccc(F)cc1 [Compound 186] | > 5 µM |
| Cc1cc(-n2c(C3CCOCC3)c([C@H]3C[C@](CF)(C(=O)O)C3)c3cc(O)ccc32)ccc1F [Compound 108] | > 5 µM |

* * *

- System name: NL20 human bronchial epithelial cells expressing human Z-AAT (Homo sapiens (Human), UniProt P01009, E366K)
- Assay notes: AAT Function Assay (MSD Assay NL20-SI Cell Line)
- Protocol conditions: functionally active AAT (AAT-hNE complex, MSD) in supernatant of NL20 cells expressing human Z-AAT; read-out: NL20 Functional EC50

| Substance smiles | EC50 |
| --- | --- |
| C[C@]1(C(=O)O)C[C@H](c2c(C3CCOCC3)n(-c3ccc(F)c(Cl)c3)c3ccc(O)cc32)C1 | 500 to 2000 nM |
| O=C(O)[C@H]1C[C@H](c2c(C3CCOCC3)n(-c3ccc(F)c(Cl)c3)c3ccc(O)cc32)C1 | 500 to 2000 nM |
| Cc1cc(-n2c(C(F)(F)F)c([C@H]3C[C@](C)(C(=O)O)C3)c3cc(O)ccc32)ccc1F | 500 to 2000 nM |
| Cc1cc(-n2c([C@H]3CCOC3)c([C@H]3C[C@H](C(=O)O)C3)c3cc(O)ccc32)ccc1F | > 2000 nM |

* * *

- System name: purified Z-AAT protein from human plasma (Homo sapiens (Human), UniProt P01009, E366K)
- Assay notes: Biochemical Assay (Z-AAT Elastase Activity Assay)
- Protocol conditions: purified Z-AAT pre-incubated with compound 1 hour, then human neutrophil elastase and fluorescent substrate

| Compound | IC50 |
| --- | --- |
| Cc1cc(-n2c(C(C)C)c([C@H]3C[C@@H]3C(=O)O)c3cc(O)ccc32)ccc1F | > 5 µM |
| Cc1cc(-n2c(C3CCOCC3)c(C[C@H]3C[C@@H](C(=O)O)C3)c3cc(O)ccc32)ccc1F | > 30 µM |
| Cc1cc(-n2c(C3CCOCC3)c(-c3ccc(C(=O)O)cc3)c3cc(O)ccc32)ccc1F | > 30 µM |
| CC(C)c1c([C@H]2C[C@](C)(C(=O)O)C2)c2cc(O)ccc2n1-c1ccc(F)c(Cl)c1 | > 5 µM |
| CC(C)c1c([C@H]2C[C@H](C(=O)O)C2)c2cc(O)ccc2n1-c1ccc(F)c(Cl)c1 | > 5 µM |
| Cc1cc(-n2c(C3CCOCC3)c(CCC(C)(C)C(=O)O)c3cc(O)ccc32)ccc1F | > 30 µM |
| Cc1cc(-n2c(C(C)C)c([C@H]3C[C@H](CO)C3)c3cc(O)ccc32)ccc1F | > 30 µM |
| CC(C)c1c([C@H]2C[C@@H]2C(=O)O)c2cc(O)c(F)cc2n1-c1ccc(F)cc1 | > 30 µM |
| Cc1cc(-n2c(C(C)C)c(-c3ccccc3C(=O)O)c3cc(O)ccc32)ccc1F | > 30 µM |
| Cc1cc(-n2c(C3CCOCC3)c(CC3(C(=O)O)CCC3)c3cc(O)ccc32)ccc1F | > 30 µM |
| O=C(O)[C@]1(C(F)(F)F)C[C@H](c2c(C3CCOCC3)n(-c3ccc(F)c(Cl)c3)c3ccc(O)cc32)C1 | > 30 µM |
| Cc1cc(-n2c(C(C)C)c([C@H]3CC[C@@H](C(=O)O)C3)c3cc(O)ccc32)ccc1F (racemic) | > 30 µM |
| N#Cc1c(C2CC2)n(-c2ccc(F)cc2)c2ccc(O)cc12 | > 30 µM |
| Cc1cc(-n2c(C(C)C)c([C@H]3C[C@@](C)(C(=O)O)C3)c3cc(O)ccc32)ccc1F | > 30 µM |
| O=C(O)[C@H]1C[C@H](c2c(C3CCOCC3)n(-c3cc(F)cc(F)c3)c3ccc(O)cc32)C1 | > 30 µM |
| Cc1cc(-n2c(C3CCOCC3)c([C@H]3C[C@H](C(=O)O)C3)c3cc(O)ccc32)ccc1F | > 30 µM |
| Cc1cc(-n2c(C3CCS(=O)(=O)CC3)c(C3CC4(CC(C(=O)O)C4)C3)c3cc(O)ccc32)ccc1F (stereo not shown) | > 30 µM |
| Cc1cc(-n2c(C(C)C)c([C@H]3C[C@H](C(=O)NS(C)(=O)=O)C3)c3cc(O)ccc32)ccc1F | > 5 µM |
| Cc1cc(-n2c(C(C)C)c(C3CN(CC(=O)O)C3)c3cc(O)ccc32)ccc1F | > 30 µM |
| Cc1cc(-n2c(C)c(C#N)c3cc(O)c(N)cc32)ccc1F | > 30 µM |
| O=C(O)[C@H]1CC2(C1)C[C@H](c1c(C3CCOCC3)n(-c3ccc(F)c(Cl)c3)c3ccc(O)cc31)C2 (stereo partly shown) [Compound 33] | > 5 µM |
| O=C(O)[C@]1(CF)C[C@@H](c2c(C3CCOCC3)n(-c3ccc(F)cc3)c3ccc(O)cc32)C1 | > 30 µM |
| Cc1cc(-n2c(C(C)C)c(CCC(F)(F)C(=O)O)c3cc(O)ccc32)ccc1F | > 5 µM |
| N#Cc1c(C2CCC2)n(-c2ccccc2)c2ccc(O)cc12 | > 30 µM |
| Cc1cc(-n2c(C(C)C)c([C@H]3C[C@@H](CO)C3)c3cc(O)ccc32)ccc1F | > 30 µM |
| CCC(O)c1c(C#N)c2cc(O)ccc2n1-c1ccc(F)cc1 (racemic) | > 30 µM |
| C/C=C/c1c(C#N)c2cc(O)ccc2n1-c1ccc(F)cc1 | > 30 µM |
| O=C(O)C1CC2(C1)CC(c1c(C3CCOCC3)n(-c3ccc(F)c(Cl)c3)c3ccc(O)cc13)C2 (stereo not shown) | > 5 µM |
| Cc1cc(-n2c(C(C)C)c([C@H]3C[C@@H](C(=O)O)C3)c3cc(O)ccc32)ccn1 | > 30 µM |
| O=C(O)[C@]1(CF)C[C@H](c2c(C3CCOCC3)n(-c3ccc(F)c(Cl)c3)c3ccc(O)cc32)C1 | > 30 µM |
| Cc1cc(-n2c(C)c(CC(=O)O)c3cc(O)ccc32)ccc1F | > 30 µM |
